pIC50: −log10 of the molar value. Square brackets hold non-standard residues; d marks the D form. Peptide text beside a SMILES is read from it. * marks the point of attachment. Tyr(3,5-(NO2)2) = N[C@@H](Cc1cc([N+](=O)[O-])c(O)c([N+](=O)[O-])c1)C(=O)O; Propanoyl(3,3-Ph2) = O=C(CC(c1ccccc1)c1ccccc1)*; Acetyl(1-naphthyl) = O=C(Cc1cccc2ccccc12)*; 1Nal = N[C@@H](Cc1cccc2ccccc12)C(=O)O; Fmoc = O=C(OCC1c2ccccc2-c2ccccc21)*; 2Naphthoyl = O=C(c1ccc2ccccc2c1)*; PhAc = O=C(Cc1ccccc1)*
pp60^src (144-251) (Homo sapiens, UniProt P12931): recorded pIC50 for assorted compounds
Sequence (P12931 144-251): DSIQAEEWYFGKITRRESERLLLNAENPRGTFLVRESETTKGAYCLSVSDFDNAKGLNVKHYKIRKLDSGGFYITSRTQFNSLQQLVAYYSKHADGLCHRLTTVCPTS

Here's what some known entries look like.
CC(C)C[C@H](NC(=O)[C@@H](NC(=O)[C@H](CCC(=O)O)NC(=O)[C@H](Cc1cc([N+](=O)[O-])c(O)c([N+](=O)[O-])c1)NC(=O)c1ccc2ccccc2c1)[C@@H](C)O)C(N)=O (2Naphthoyl-[Tyr(3,5-(NO2)2)]ETL-NH2) : < 3.00
CC(=O)N[C@@H](Cc1cccc2ccccc12)C(=O)N[C@@H](Cc1cc([N+](=O)[O-])c(O)c([N+](=O)[O-])c1)C(=O)N[C@@H](CCC(=O)O)C(=O)N[C@H](C(=O)N[C@@H](CC(C)C)C(N)=O)[C@@H](C)O (Ac-[1Nal][Tyr(3,5-(NO2)2)]ETL-NH2) : < 3.30
CC(C)C[C@H](NC(=O)[C@@H](NC(=O)[C@H](CCC(=O)O)NC(=O)[C@H](Cc1cc([N+](=O)[O-])c(O)c([N+](=O)[O-])c1)NC(=O)OCC1c2ccccc2-c2ccccc21)[C@@H](C)O)C(N)=O [ETLNH2] (Fmoc-[Tyr(3,5-(NO2)2)]ETL-NH2) : < 3.00
CC(C)C[C@H](NC(=O)[C@@H](NC(=O)[C@H](CCC(=O)O)NC(=O)[C@H](Cc1cc([N+](=O)[O-])c(O)c([N+](=O)[O-])c1)NC(=O)Cc1cccc2ccccc12)[C@@H](C)O)C(N)=O ({Acetyl(1-naphthyl)}-[Tyr(3,5-(NO2)2)]ETL-NH2) : < 3.00
CC(C)C[C@H](NC(=O)[C@@H](NC(=O)[C@H](CCC(=O)O)NC(=O)[C@H](Cc1cc([N+](=O)[O-])c(O)c([N+](=O)[O-])c1)NC(=O)CC(c1ccccc1)c1ccccc1)[C@@H](C)O)C(N)=O ({Propanoyl(3,3-Ph2)}-[Tyr(3,5-(NO2)2)]ETL-NH2) : < 3.00

Let us move to another entry and its pIC50.
## Input Write down pIC50 measured for item CC(C)C[C@H](NC(=O)[C@@H](NC(=O)[C@H](CCC(=O)O)NC(=O)[C@H](Cc1cc([N+](=O)[O-])c(O)c([N+](=O)[O-])c1)NC(=O)Cc1ccccc1)[C@@H](C)O)C(N)=O (PhAc-[Tyr(3,5-(NO2)2)]ETL-NH2)
## Output < 3.00
